- Experimental conditions: human, plasma, oral, 120 mg, Cmax, Median (range), single dose (Day-2), n = 3
Parameter: Cmax (ng/mL)

Record smiles	Quantitative result
CCc1nc(C(N)=O)c(Nc2ccc(N3CCC(N4CCN(C)CC4)CC3)c(OC)c2)nc1NC1CCOCC1	85.7

----------
- Experimental conditions: human, plasma, oral, 200 mg, AUC24, Median (range), single dose (Day-2), n = 3

Record smiles	AUC, ng·h/mL
CCc1nc(C(N)=O)c(Nc2ccc(N3CCC(N4CCN(C)CC4)CC3)c(OC)c2)nc1NC1CCOCC1	2540

----------
- Experimental conditions: human, plasma, oral, 40 mg, AUC24, Mean (SD), single dose (Day-2), n = 3

Record smiles	Output unit	AUC
CCc1nc(C(N)=O)c(Nc2ccc(N3CCC(N4CCN(C)CC4)CC3)c(OC)c2)nc1NC1CCOCC1	ng·h/mL	360

----------
- Experimental conditions: human, plasma, oral, 80 mg, t½, Median (range), multiple dosing QD (Day 15), 80 mg, n = 3; calculated from Rac
Parameter: half-life (h)

Record smiles	Quantitative result
CCc1nc(C(N)=O)c(Nc2ccc(N3CCC(N4CCN(C)CC4)CC3)c(OC)c2)nc1NC1CCOCC1	91

----------
- Experimental conditions: human, plasma, oral, 40 mg, AUC24, Median (range), single dose (Day-2), n = 3
Parameter: AUC

Compound	Result
CCc1nc(C(N)=O)c(Nc2ccc(N3CCC(N4CCN(C)CC4)CC3)c(OC)c2)nc1NC1CCOCC1 [gilteritinib, Gilteritinib]	315 ng·h/mL

----------
- Experimental conditions: human, plasma, oral, 20 mg, AUC24, Mean (SD), single dose (Day-2), n = 5
Parameter: AUC (ng·h/mL)

Record smiles	Parameter	Output unit	Quantitative result
CCc1nc(C(N)=O)c(Nc2ccc(N3CCC(N4CCN(C)CC4)CC3)c(OC)c2)nc1NC1CCOCC1	AUC	ng·h/mL	302
